Target: Enoyl-[acyl-carrier-protein] reductase [NADPH] FabI (Staphylococcus aureus, UniProt Q6GI75)
Sequence (Q6GI75 whole entry): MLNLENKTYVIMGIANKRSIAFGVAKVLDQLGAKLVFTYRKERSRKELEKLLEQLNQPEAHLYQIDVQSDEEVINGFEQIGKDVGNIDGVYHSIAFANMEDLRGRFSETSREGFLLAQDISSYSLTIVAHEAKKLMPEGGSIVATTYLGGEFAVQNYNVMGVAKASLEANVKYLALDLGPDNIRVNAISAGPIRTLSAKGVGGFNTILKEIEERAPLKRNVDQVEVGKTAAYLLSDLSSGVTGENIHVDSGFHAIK
Assay: Inhibition of Staphylococcus aureus ATCC 29213 FabI in the presence of NADH using crotonyl CoA as substrate by measuring NADH consumption rate
pIC50: −log10 of the molar value.
Each item that follows carries a reported pIC50.
VALUE_KIND: pIC50

- COMPOUND: "CCCCCCCCCCCCCCCCc1cc(OC2OC(CO)C(O)C(O)C2O)cc(O)c1C(=O)Oc1cc(C)c(C(=O)O)c(O)c1 (stereo not drawn)"
  VAL: 5.49
- COMPOUND: "Cc1c(CN(C)C(=O)/C=C/c2cnc3c(c2)CCC(=O)N3)oc2ccccc12"
  VAL: 5.02
- COMPOUND: "CN1C(=O)[C@@H](c2cc(Cl)c(O)c(Cl)c2)NC(=O)[C@@H]2NC(=O)[C@@H](c3cc(Cl)c(O)c(Cl)c3)NC(=O)[C@H](NC(=O)C(=O)c3cc(Cl)c(O)c(Cl)c3)CC3C(=O)Nc4cc(ccc43)-c3cc2cc(c3O)Oc2ccc(cc2)C[C@H]1C(=O)N[C@@H](C(=O)O)c1ccc(O)cc1 (stereo partly drawn)"
  VAL: 6.22
